Data credit: PubChem BioAssay

Assay: plasmodial surface anion channel blockers, osmotic lysis – cell-based, P. falciparum Indochina, OD700, 18 h, primary screen (AID 1157)
Conditions: P. falciparum Indochina infected erythrocytes, osmotic lysis OD700, 18 h; higher = more signal, called active from +8 up or from −8 down
Given measured z-score, output YES if it is greater than or equal to 0.3 and NO if not.

Use the examples below as a reference point.
MOLECULE: COCCCNC(=O)[C@@]1(Sc2ccc(C)cc2)CC(=O)N(Cc2ccccc2C(F)(F)F)[C@@H]1c1ccc(CO)cc1I
LABEL_CLASS: YES
//
MOLECULE: COc1cc(CO)cc(I)c1O[C@H]1C=C(C(=O)NCCO)C[C@@H]2O[C@H]12
LABEL_CLASS: YES
//
MOLECULE: COC(=O)C[C@H]1O[C@@]2(C[C@@H]1[Si](C)(C)C)C(=O)N(C)c1ccccc12
LABEL_CLASS: NO
//
MOLECULE: COc1cc(CO)cc(I)c1O[C@H]1C=C(C(=O)NCCO)C[C@@H](NC2CCCCCC2)[C@@H]1O
LABEL_CLASS: YES
//
MOLECULE: CCOC(=O)c1cn(C[C@H](Cc2ccccc2)NC(=O)N[C@H](CO)CCc2oc(C(C)=O)c(C(=O)OC)c2C(=O)OC)nn1
LABEL_CLASS: NO
//
MOLECULE: COc1ccc([Si](C)(C)[C@@H]2[C@@H](CC(=O)N(CCO)Cc3ccccc3)O[C@]3(C(=O)N(Cc4ccc(N5C(=O)c6cccc7cccc5c67)cc4)c4ccccc43)[C@H]2C)cc1
LABEL_CLASS: YES
//
MOLECULE: C=C1C(=O)C=C2CN(C(=O)c3ccccc3)[C@@](Cc3ccc(OC)cc3)(C(=O)OC)[C@@H]12
LABEL_CLASS: YES
//
MOLECULE: CO[C@H]1O[C@H](CO)[C@@H](OC(=O)Nc2ccccc2-c2ccccc2)[C@H](OC(=O)Nc2ccccc2)[C@H]1OC(=O)Nc1ccccc1
LABEL_CLASS: YES
//
MOLECULE: COCCOC(=O)N1C(=O)[C@@]2(c3ccccc31)[C@H](C(=O)N1CCN(c3ncccn3)CC1)[C@H]1C(=O)O[C@H](c3ccccc3)[C@H](c3ccccc3)N1[C@@H]2c1ccccc1OCCO
LABEL_CLASS: NO
//
MOLECULE: COC(=O)[C@]1(Cc2ccccc2)N=C(c2ccc(OCCCO)cc2)O[C@@H]1c1ccccc1CN=[N+]=[N-]
LABEL_CLASS: YES

-- ask Please check the record C=CCNC(=O)[C@H]1[C@@H]2C(=O)O[C@@H](c3ccccc3)[C@@H](c3ccccc3)N2[C@@H](c2ccc(OCCO)cc2)[C@]12C(=O)Nc1ccc(C#CC3(O)CCCCCC3)cc12 and state if its z-score is at or above 0.3.
-- reply YES

-- ask Please check the record COc1ccc(CCNC(=O)[C@@H]2c3ccccc3C(=O)N(Cc3ccccc3OC)[C@H]2c2ccc(CO)cc2)cc1 and state if its z-score is at or above 0.3.
-- reply NO

-- ask Please check the record Cc1ccc(S[C@]2(C(=O)NCCCN(C)C)CC(=O)N(Cc3ccccc3C(F)(F)F)[C@@H]2c2ccc(CO)cc2I)cc1 and state if its z-score is at or above 0.3.
-- reply YES

-- ask Please check the record O=C1OCCC=C[C@H]2OC34C=CCN(c5ccc6ccccc6c5)C(=O)[C@H]3N(CCO)C(=O)[C@@H]4C12 (some centres undefined) and state if its z-score is at or above 0.3.
-- reply YES
